- study-target: FGFR1 (Homo sapiens, UniProt P11362)
- Construct: made in house; host or cells: E. coli (BL21-derived), T7 phage
- Sequence (P11362 22-822): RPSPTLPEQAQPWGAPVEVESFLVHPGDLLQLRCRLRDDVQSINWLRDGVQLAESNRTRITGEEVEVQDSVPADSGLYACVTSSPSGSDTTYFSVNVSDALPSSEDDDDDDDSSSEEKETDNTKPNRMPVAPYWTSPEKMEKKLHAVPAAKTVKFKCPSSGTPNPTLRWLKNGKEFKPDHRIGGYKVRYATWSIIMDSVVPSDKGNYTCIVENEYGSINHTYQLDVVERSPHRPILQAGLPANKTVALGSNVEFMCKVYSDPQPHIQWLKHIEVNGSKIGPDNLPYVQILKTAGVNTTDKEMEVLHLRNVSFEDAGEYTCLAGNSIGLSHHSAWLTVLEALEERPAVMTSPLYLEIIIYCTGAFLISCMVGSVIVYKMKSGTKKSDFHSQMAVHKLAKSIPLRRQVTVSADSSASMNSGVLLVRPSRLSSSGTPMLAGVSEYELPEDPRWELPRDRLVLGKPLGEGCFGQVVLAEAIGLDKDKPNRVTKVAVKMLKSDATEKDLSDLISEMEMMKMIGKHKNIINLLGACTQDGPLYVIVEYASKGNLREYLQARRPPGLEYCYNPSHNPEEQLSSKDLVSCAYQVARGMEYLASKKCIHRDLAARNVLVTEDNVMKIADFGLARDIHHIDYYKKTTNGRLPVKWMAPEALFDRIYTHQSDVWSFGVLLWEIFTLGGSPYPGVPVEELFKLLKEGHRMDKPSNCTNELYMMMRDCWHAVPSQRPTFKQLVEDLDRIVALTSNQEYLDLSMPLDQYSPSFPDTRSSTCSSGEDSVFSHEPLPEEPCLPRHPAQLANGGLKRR
- procedure-text: Kinase binding assay (kinase-tagged T7 phage, affinity beads, qPCR), Kd
- experimental-parameters: read-out: FGFR1 (Kd nM)
parameter-measured: Kd

>  <cpd-smiles>
COc1cc2[nH]nc(-c3cnc(N4CC(C)(N(C)C)C4)c(S(C)(=O)=O)c3)c2cc1O[C@H](C)c1c(Cl)cncc1Cl

>  <study-target>
FGFR1 (Homo sapiens, UniProt P11362)

>  <parameter-measured>
Kd

>  <experimental-value>
1 to 50 nM

$$$$

Query string: Entry COCC1(N)CN(c2ccc(-c3n[nH]c4ccc(O[C@H](C)c5c(Cl)cncc5Cl)cc34)nn2)C1 , system FGFR1 (Homo sapiens, UniProt P11362): what Kd was measured?
Result string: 1 to 50 nM

* * *

- study-target: FGFR4 (Homo sapiens)
- Construct: made in house; host or cells: E. coli (BL21-derived), T7 phage
- procedure-text: Kinase binding assay (kinase-tagged T7 phage, affinity beads, qPCR), Kd
- experimental-parameters: read-out: FGFR4 (Kd nM)
Reported Kd values for a set of compounds

Query string: Returns the measured Kd for the input compound. Input: COc1cc2[nH]nc(-c3cnc(N4CC(C)(NC[C@@H](C)O)C4)c(F)c3)c2cc1O[C@H](C)c1c(Cl)cncc1Cl [Example 161]
Result string: 1 to 50 nM

* * *

- study-target: FGFR4 (Homo sapiens, UniProt P22455)
- Construct: made in house; host or cells: E. coli (BL21-derived), T7 phage
- Sequence (P22455 22-802): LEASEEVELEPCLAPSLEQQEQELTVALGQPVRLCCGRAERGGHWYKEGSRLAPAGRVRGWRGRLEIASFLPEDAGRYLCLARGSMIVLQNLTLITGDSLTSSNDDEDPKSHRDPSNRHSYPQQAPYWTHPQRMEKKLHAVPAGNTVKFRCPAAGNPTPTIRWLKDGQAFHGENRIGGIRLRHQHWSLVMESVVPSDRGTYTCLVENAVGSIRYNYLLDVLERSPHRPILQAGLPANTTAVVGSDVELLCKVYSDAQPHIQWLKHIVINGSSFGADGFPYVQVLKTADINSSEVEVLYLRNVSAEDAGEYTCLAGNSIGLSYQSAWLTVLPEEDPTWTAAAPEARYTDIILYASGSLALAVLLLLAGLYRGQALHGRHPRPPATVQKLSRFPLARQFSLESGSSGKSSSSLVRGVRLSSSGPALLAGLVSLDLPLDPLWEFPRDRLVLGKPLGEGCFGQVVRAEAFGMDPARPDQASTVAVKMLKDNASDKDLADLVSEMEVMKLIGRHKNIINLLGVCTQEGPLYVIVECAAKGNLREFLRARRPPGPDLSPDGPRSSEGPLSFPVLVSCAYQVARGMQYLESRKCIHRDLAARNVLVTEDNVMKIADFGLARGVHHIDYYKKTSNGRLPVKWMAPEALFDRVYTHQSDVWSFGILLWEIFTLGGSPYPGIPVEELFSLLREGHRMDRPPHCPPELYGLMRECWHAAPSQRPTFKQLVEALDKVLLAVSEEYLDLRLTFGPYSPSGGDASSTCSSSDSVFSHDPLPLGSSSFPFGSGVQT
- procedure-text: Kinase binding assay (kinase-tagged T7 phage, affinity beads, qPCR), Kd
- experimental-parameters: read-out: FGFR4 (Kd nM)
Reported Kd values for a set of compounds

Look over these answered cases.
>  <compound>
Cc1ncc(Cl)c([C@@H](C)Oc2ccc3[nH]nc(-c4cnc(N5CC(C)(NCC6CC6)C5)c(F)c4)c3c2)c1Cl [Example 209]

>  <Kd>
1 to 50 nM

$$$$
>  <compound>
C=CCNC1(C)CN(c2ncc(-c3n[nH]c4ccc(O[C@H](C)c5c(Cl)cncc5Cl)cc34)cn2)C1 [Example 234]

>  <Kd>
1 to 50 nM

$$$$
>  <compound>
CCN(CC)C1(C)CN(c2ccc(-c3n[nH]c4ccc(O[C@H](C)c5c(Cl)cnc(C)c5Cl)cc34)cn2)C1 [Example 72]

>  <Kd>
1 to 50 nM

$$$$
>  <compound>
COc1cc2[nH]nc(-c3cnc(N4CC(C)(NCP(C)(C)=O)C4)c(C#N)c3)c2cc1O[C@H](C)c1c(Cl)cncc1Cl [Example 329]

>  <Kd>
1 to 50 nM

$$$$

Query string: Returns the measured Kd for the input compound. Input: C[C@@H](Oc1ccc2[nH]nc(-c3cnc(N4CC(C)(NC(=O)CN(C)C)C4)c(C#N)c3)c2c1)c1c(Cl)cncc1Cl [Example 87]
Result string: 1 to 50 nM

Query string: Returns the measured Kd for the input compound. Input: C[C@@H](Oc1ccc2[nH]nc(-c3ccc(N4CC(C)(NCCO)C4)nc3)c2c1F)c1c(Cl)cncc1Cl [Example 192]
Result string: 300 to 1000 nM

Query string: Returns the measured Kd for the input compound. Input: C[C@@H](Oc1ccc2[nH]nc(-c3cnc(N4CC(C)(NCC5CC5)C4)c(C#N)c3)c2c1)c1c(Cl)cncc1Cl [Example 27]
Result string: 1 to 50 nM
